The reader will find reported log10 of IC50 values listed item by item below.
- SUBJECT OF TEST: full length recombinant Pim-3 (Homo sapiens (Human))
- ASSAY EXPLANATION: Pim enzyme assay (HTRF, phosphorylation of biotinylated-BAD (S112) peptide), Pim-3
- Format: biochemical
- EXPERIMENTAL CONTEXT: Pim-3 enzyme assay; read-out: Pim3 IC50
Annotation: log10 of IC50, nM basis.

{"COMPOUND": "Nc1nnc(-c2ccc3[nH]cc(-c4cncc(-c5ccc(F)cc5)n4)c3c2)o1 [Example 7]", "log10 of IC50": 1.29}
{"COMPOUND": "c1cc2[nH]cc(-c3cncc(C4CC4)n3)c2cc1-c1nnc(NC2CC2)o1 [Example 49]", "log10 of IC50": 0.26}
{"COMPOUND": "CC(C)(Nc1nnc(-c2ccc3[nH]cc(-c4ncccn4)c3c2)o1)c1ccccc1 [Example 52, 2,2,2-trifluoroacetate]", "log10 of IC50": 1.61}

Field log10 of IC50 (system: full length recombinant Pim-3 (Homo sapiens (Human))) for entry Nc1nnc(-c2ccc3[nH]cc(-c4ccccc4F)c3c2)o1 [Example 84] = 1.41

Measured log10 of IC50 for this entry CNc1nnc(-c2ccc3[nH]cc(-c4cccc(OC(F)(F)F)c4)c3c2)s1 [Example 225] on full length recombinant Pim-3 (Homo sapiens (Human)): 2.62

# lookup: CC(=O)Nc1cccc(CNc2nnc(-c3ccc4[nH]cc(-c5ccccc5F)c4c3)s2)c1 [Example 145] on full length recombinant Pim-3 (Homo sapiens (Human)), log10 of IC50 = 2.49

Fill in: full length recombinant Pim-3 (Homo sapiens (Human)) log10 of IC50 for COc1cc(-c2c[nH]c3ccc(-c4nnc(N)s4)cc23)nc(OC(C)C)n1 [Example 200] = 0.34

The compound CNc1nnc(-c2ccc3[nH]cc(-c4ccc(-c5cccs5)s4)c3c2)s1 [Example 241] on full length recombinant Pim-3 (Homo sapiens (Human)): log10 of IC50 was 2.62

* * *

- SUBJECT OF TEST: full length recombinant Pim-2 (Homo sapiens (Human), UniProt Q9P1W9)
- Sequence (Q9P1W9 whole entry): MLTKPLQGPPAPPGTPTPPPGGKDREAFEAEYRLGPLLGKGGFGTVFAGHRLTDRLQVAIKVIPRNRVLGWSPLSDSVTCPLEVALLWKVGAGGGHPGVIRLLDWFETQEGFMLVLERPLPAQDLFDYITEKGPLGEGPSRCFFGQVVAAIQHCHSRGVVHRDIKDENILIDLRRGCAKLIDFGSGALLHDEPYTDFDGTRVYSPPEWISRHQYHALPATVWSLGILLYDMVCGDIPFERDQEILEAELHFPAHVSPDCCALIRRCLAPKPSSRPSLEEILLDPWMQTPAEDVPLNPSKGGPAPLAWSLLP
- ASSAY EXPLANATION: Pim enzyme assay (HTRF, phosphorylation of biotinylated-BAD (S112) peptide), Pim-2
- Assay type: biochemical
- EXPERIMENTAL CONTEXT: Pim-2 enzyme assay; read-out: Pim2_IC50
Strictly below 200 nM in IC50: Fulfilled. Otherwise: Not fulfilled.

Below, 5 compounds whose answers are already recorded.
{"COMPOUND": "CCCCOc1cnc(-c2c[nH]c3ccc(-c4nnc(N)s4)cc23)cn1 [Example 193]", "DISCRETE LABEL": "Not fulfilled"}
{"COMPOUND": "Nc1nnc(-c2ccc3[nH]cc(-c4nccc(N5CCC[C@@H](O)C5)n4)c3c2)o1 (stereo in doubt) [Example 104]", "DISCRETE LABEL": "Fulfilled"}
{"COMPOUND": "N[C@H]1CCN(c2nnc(-c3ccc4[nH]cc(-c5ccccc5F)c4c3)s2)C1 (stereo in doubt) [Example 140]", "DISCRETE LABEL": "Not fulfilled"}
{"COMPOUND": "CNc1nnc(-c2ccc3[nH]cc(-c4cccc(OC)c4)c3c2)s1 [Example 226]", "DISCRETE LABEL": "Not fulfilled"}
{"COMPOUND": "CC(C)Nc1cccc(-c2c[nH]c3ccc(-c4nnc(N)s4)cc23)n1 [Example 203]", "DISCRETE LABEL": "Fulfilled"}

Threshold test, IC50 < 200 nM: CC(C)Oc1cccc(-c2c[nH]c3ccc(-c4nc(N)ns4)cc23)n1 [Example 63]
Not fulfilled

# strict comparison: is reported IC50 < 200 nM? input = CNc1nnc(-c2ccc3[nH]cc(-c4nccc(N5CCN(C)CC5)n4)c3c2)s1 [Example 132]
Fulfilled

is_below(IC50, 200 nM) for Cc1nccn1-c1cccc(-c2c[nH]c3ccc(-c4nnc(N)s4)cc23)n1 [Example 169] ?
Fulfilled

Please check: IC50 for CNc1nnc(-c2ccc3[nH]cc(-c4nccc(N5CCCCC5)n4)c3c2)s1 [Example 135] , strictly under 200 nM or not?
Fulfilled

# TODO verify IC50 < 200 nM strictly for this compound: CC(C)Oc1ccc(F)c(-c2c[nH]c3ccc(-c4nnc(N)o4)nc23)c1 [Example 125]
Fulfilled

# strict comparison: is reported IC50 < 200 nM? input = Nc1nnc(-c2ccc3[nH]cc(-c4cccc(N5CCOCC5)n4)c3c2)s1 [Example 24]
Fulfilled

Threshold test, IC50 < 200 nM: CCN(C)c1cnc(-c2c[nH]c3ccc(-c4nnc(N)s4)cc23)cn1 [Example 188]
Not fulfilled

Say whether its IC50 is strictly beneath 200 nM. Entry: Nc1nnc(-c2ccc3[nH]cc(-c4c(F)cccc4F)c3c2)s1 [Example 138]
Not fulfilled
